Source listed as patent US20220127354A1.

target: T1, muCDH19(44-247)::huCDH19(250-364)::muCDH19(363-770) with Flag tag (construct F, Hu EC3) (human/mouse chimera); test: flow cytometry, transfected 293T cells
T1 construct: leader left out; the entry starts at residue 44; also called C137911
quantity.kind: binding result

[
  {
    "binder": "hu anti-<huCDH19> 4A2 (1-472)(Q17E,H47P) VH::huIgG1z + 4A2 (1-236)(N30Q,T102A) VL::huKLC (Ab ID 14026) (antibody, V domains shown, Engineered variant of 4A2; the entries already carry the changes; Bin 4) VH: QVQLQESGPGLVKPSETLSLTCTVSGGSISSSGYYWSWIRQPPGKGLEWIGYIYYTGSAYYNPSLKSRVTISVDTSKNQFSLKLSSVTAADTAVYYCARDGSSGWYFQYWGQGTLVTVSS VL: EIVLTQSPGTLSLSPGERATLSCRASRQISSSYLAWYQQKPGQAPRLLIYGPSSRATGIPDRFSGSGSGTDFTLTISRLEPEDFAVYYCQQYGSSFTFGPGTKVDIKR",
    "meas.value": "binds"
  },
  {
    "binder": "hu anti-<huCDH19> 2G6 (1-477)(R17G,D61E,D72E,K94N) VH::huIgG1z + 2G6 (1-234)(C42S,D110E) VL::huLLC-C1 (Ab ID 14039) (antibody, V domains shown, Engineered variant of 2G6; the entries already carry the changes; Bin 4) VH: QVQLVESGGGVVQPGGSLRLSCAASGFTFSSYGMHWVRQAPGKGLEWVAFIWYEGSNKYYAESVKDRFTISRDNSKNTLYLQMNSLRAEDTAVYYCARRAGIIGTIGYYYGMDVWGQGTTVTVSS VL: SYELTQPPSVSVSPGQTASITCSGDRLGEKYTSWYQQRPGQSPLLVIYQDTKRPSGIPERFSGSNSGNTATLTISGTQAMDEADYYCQAWESSTVVFGGGTKLTVLG",
    "meas.value": "binds"
  }
]
